From: ChEMBL document CHEMBL3885861

Organism: Rattus norvegicus
PROTOCOL: Open TG-GATES - Regimen: Daily Repeat
Assay type: toxicity, organism-based, Sprague-Dawley
Set-up: regimen Daily Repeat, gender Male, age 6 weeks
CONDITION_SUMMARY: in vivo, po, 1000 mg/kg, […], tissue Plasma, route gavage, dose level High, time 14 day
VALUE_KIND: TP (g/dL)
Quick note: give the figure in g/dL, leave out the unit.

Completed entries (count: 2):
SMILES_ENTRY	TP, g/dL
CNC(=C[N+](=O)[O-])NCCSCc1ccc(CN(C)C)o1	5.8
COC(=O)C1=C(C)NC(C)=C(C(=O)OC)C1c1ccccc1[N+](=O)[O-]	5.9

Read off the recorded TP for `CN/C(=N/CCSCc1nc[nH]c1C)NC#N` 5.8

Read off the recorded TP for `CCOc1ccc(NC(C)=O)cc1` 5.9

Read off the recorded TP for `O=C(OC[C@H]1O[C@@H](OC(=O)c2cc(O)c(O)c(OC(=O)c3cc(O)c(O)c(O)c3)c2)[C@H](OC(=O)c2cc(O)c(O)c(OC(=O)c3cc(O)c(O)c(O)c3)c2)[C@@H](OC(=O)c2cc(O)c(O)c(OC(=O)c3cc(O)c(O)c(O)c3)c2)[C@@H]1OC(=O)c1cc(O)c(O)c(OC(=O)c2cc(O)c(O)c(O)c2)c1)c1cc(O)c(O)c(OC(=O)c2cc(O)c(O)c(O)c2)c1` 5.8

Read off the recorded TP for `Cc1nnc2n1-c1ccc(Cl)cc1C(c1ccccc1Cl)=NC2` 5.7

---

Organism: Rattus norvegicus
PROTOCOL: Open TG-GATES - Regimen: Daily Repeat
Format: toxicity, organism-based, Sprague-Dawley
Parameters: regimen Daily Repeat, gender Male, age 6 weeks
CONDITION_SUMMARY: in vivo, po, 0 mg/kg, 72 h, tissue Liver, route gavage, dose level Control, time 3 day
VALUE_KIND: LIVER (g)
Quick note: give the figure in g, leave out the unit.

Completed entries (count: 4):
> print(dat)
                                   compound  readout.units  obs.value
1  CN/C(=N/CCSCc1nc[nH]c1C)NC#N [CIMETIDINE]              g       10.7
2         Nc1c2c(nc3ccccc13)CCCC2 [TACRINE]              g       10.2
3  COC(=O)C1=C(C)NC(C)=C(C(=O)OC)C1c1ccccc1[N+](=O)[O-] [NIFEDIPINE]              g       10.4
4  CN(C)CCC(c1ccc(Cl)cc1)c1ccccn1 (stereo not given) [CHLORPHENIRAMINE]              g       10.1

Next item in the queue.
Read off the recorded LIVER for CNC(=C[N+](=O)[O-])NCCSCc1ccc(CN(C)C)o1 [RANITIDINE] 11.5

---

Below, each of the molecules is paired with its reported IP value.
Organism: Rattus norvegicus
PROTOCOL: Open TG-GATES - Regimen: Single
Assay type: toxicity, organism-based, Sprague-Dawley
Design: regimen Single, gender Male, age 6 weeks
CONDITION_SUMMARY: in vivo, po, 100 mg/kg, 9 h, tissue Plasma, route gavage, dose level Low
Report as: number unit

Completed entries (count: 4):
MOLECULE	IP
CNC(=C[N+](=O)[O-])NCCSCc1ccc(CN(C)C)o1 [RANITIDINE]	8.4 mg/dL
Cc1nnc2n1-c1ccc(Cl)cc1C(c1ccccc1Cl)=NC2 [TRIAZOLAM]	10.6 mg/dL
COC(=O)C1=C(C)NC(C)=C(C(=O)OC)C1c1ccccc1[N+](=O)[O-] [NIFEDIPINE]	10.8 mg/dL
O=C(OC[C@H]1O[C@@H](OC(=O)c2cc(O)c(O)c(OC(=O)c3cc(O)c(O)c(O)c3)c2)[C@H](OC(=O)c2cc(O)c(O)c(OC(=O)c3cc(O)c(O)c(O)c3)c2)[C@@H](OC(=O)c2cc(O)c(O)c(OC(=O)c3cc(O)c(O)c(O)c3)c2)[C@@H]1OC(=O)c1cc(O)c(O)c(OC(=O)c2cc(O)c(O)c(O)c2)c1)c1cc(O)c(O)c(OC(=O)c2cc(O)c(O)c(O)c2)c1 [TANNIC ACID]	10.2 mg/dL

Next item in the queue.
Read off the recorded IP for CN/C(=N/CCSCc1nc[nH]c1C)NC#N [CIMETIDINE] 10 mg/dL
